Tested system: OsWRKY34 (Oryza sativa, UniProt Q0JBA9 1-250)
Sequence (Q0JBA9 entry or part of it): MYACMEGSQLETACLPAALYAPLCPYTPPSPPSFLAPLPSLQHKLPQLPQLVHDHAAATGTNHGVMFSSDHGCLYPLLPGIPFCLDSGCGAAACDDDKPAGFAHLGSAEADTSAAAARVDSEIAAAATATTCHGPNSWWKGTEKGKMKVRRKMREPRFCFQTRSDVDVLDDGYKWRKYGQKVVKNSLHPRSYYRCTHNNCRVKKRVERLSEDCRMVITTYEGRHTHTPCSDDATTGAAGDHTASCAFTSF
Run description: protein-binding microarray (RPBM); PBS, 2% BSA, 51.3 ng/ul salmon testes DNA, 50 uM zinc acetate, 200 nM TF, 25 C, 1 h; high values mean tight binding
Experimental conditions: protein: recombinant; tags: N-terminal polyhistidine and DsRed monomer fusion (pET32a); label: CyDye5-dUTP incorporated in the synthesized complementary strand; 3' TTTTT single-stranded linker to array surface; dsDNA, one strand shown
Whole data set: some 68,000 sequences, median “fluorescence intensity (a.u.)” near 9,100, cut for the highest 2% near 16,000. Shown is part of a subset that was picked to be rich in the highest values.
Value kind: binding signal

Give recorded binding signal with OsWRKY34 (Oryza sativa, UniProt Q0JBA9 1-250) for the following sequence: CTTAGGTCAACACCGAAAACTAATCACCATGTTGACTTTGCGGAGTCACCTAGTGCAG
9710 fluorescence intensity (a.u.)

Further, for GAACGGTCAAACATGTGTTAAAAAGTCAACGGTGTTAAACCGGAGTCACCTAGTGCAG ?
9470 fluorescence intensity (a.u.)

And then GTGTTAGGTGCTGAGATTTTTGTACTTGCTTTATTATTTTCGGAGTCACCTAGTGCAG , what is it?
8860 fluorescence intensity (a.u.)

Now consider ACTTTTACATAGAATTTTTTTTTGAACACACCGTTTAGCACGGAGTCACCTAGTGCAG .
8510 fluorescence intensity (a.u.)

Thanks! And GGTTATGGGCGGGTTGAGCAATGTTTTTCATGATTAGTCTCGGAGTCACCTAGTGCAG ?
18600 fluorescence intensity (a.u.)

Cool, now TACCCTTTTTTTGGGTAGGGTGGGTTGGATTTATTTATTTCGGAGTCACCTAGTGCAG
12300 fluorescence intensity (a.u.)

Repeat for the following sequence: TATATATATATATATATATATATATATATATAAGGTTTGACGGAGTCACCTAGTGCAG
17300 fluorescence intensity (a.u.)

// next record ATAAGACGAACGGTCAAATATGTGCTAAAAAGTCAACGGTCGGAGTCACCTAGTGCAG
16400 fluorescence intensity (a.u.)

// same read-out, input: ACTTTAGTTTTTTTCCGTTGCAGCACACGGTTTTTTTTAACGGAGTCACCTAGTGCAG
9170 fluorescence intensity (a.u.)

---

Tested system: OsWRKY34 (Oryza sativa, UniProt Q0JBA9 1-250)
Run description: protein-binding microarray (RPBM); PBS, 2% BSA, 51.3 ng/ul salmon testes DNA, 50 uM zinc acetate, 200 nM TF, 25 C, 1 h; high values mean tight binding
Experimental conditions: protein: recombinant; tags: N-terminal polyhistidine and DsRed monomer fusion (pET32a); label: CyDye5-dUTP incorporated in the synthesized complementary strand; 3' TTTTT single-stranded linker to array surface; dsDNA, one strand shown
In all, about 68,000 sequences were measured (“fluorescence intensity (a.u.)”: median about 9,100, highest 2% from about 16,000 on). The full list was thinned out, with the highest values kept by preference.
Value kind: binding signal

binding signal for TCGTTCCTTCCTGTTGTTTCCTTTTCTTTTCCTTTATTTTCGGAGTCACCTAGTGCAG ?
8070 fluorescence intensity (a.u.)

Next record, please: TTATTTCCGCAAATCGTTCGCTATCCGGTATATTTTTGCACGGAGTCACCTAGTGCAG
17300 fluorescence intensity (a.u.)

Would you mind doing TCTTTATTTACCTTTTTTTGAGTCGGACTTCTTTTTCTTTCGGAGTCACCTAGTGCAG as well?
8240 fluorescence intensity (a.u.)

Another sequence to look at: AATAGATGACATTGTTGACTTATTCTTACATGTTTGCCCACGGAGTCACCTAGTGCAG
9350 fluorescence intensity (a.u.)

Repeat for the following sequence: TTTTTATATACCGGTAAATATCCGCTACCGTATTCGTTCCCGGAGTCACCTAGTGCAG
10200 fluorescence intensity (a.u.)

What do you have for TTGTCTTCCTTTGTTTCGACTGGTCCAGTTTCGTCCTCTCCGGAGTCACCTAGTGCAG ?
10300 fluorescence intensity (a.u.)

Now the same for CTTATTTGTAGCTTCCTTTTTTTTTCCTTTTTCTTTTATTCGGAGTCACCTAGTGCAG
10400 fluorescence intensity (a.u.)

Let us now turn to CCTTTTTAGTCGGACTTCTTTTTCTTTTTTACCGACTTTGCGGAGTCACCTAGTGCAG
10300 fluorescence intensity (a.u.)

Please give the result for GGAGCACCTGTCGTGCGCTGCCGCCATGTACGCGGCGCCGCGGAGTCACCTAGTGCAG too.
8360 fluorescence intensity (a.u.)

---

Tested system: OsWRKY34 (Oryza sativa, UniProt Q0JBA9 1-250)
Run description: protein-binding microarray (RPBM); PBS, 2% BSA, 51.3 ng/ul salmon testes DNA, 50 uM zinc acetate, 200 nM TF, 25 C, 1 h; high values mean tight binding
Experimental conditions: protein: recombinant; tags: N-terminal polyhistidine and DsRed monomer fusion (pET32a); label: CyDye5-dUTP incorporated in the synthesized complementary strand; 3' TTTTT single-stranded linker to array surface; dsDNA, one strand shown
The full ranking holds about 68,000 sequences; the median of “fluorescence intensity (a.u.)” is about 9,100, and the highest 2% start at about 16,000. The sample as a whole holds a higher share of the highest values than the screen did.
Could you please report measured binding signal for the items listed next?

State its binding signal on OsWRKY34 (Oryza sativa, UniProt Q0JBA9 1-250): AAACTGCCAGCTTTCTGCATCTCTCCGCCCTCATGATGCGCGGAGTCACCTAGTGCAG
9490 fluorescence intensity (a.u.)

Follow-up item: GCTTGGATTTTTTTTGTTGCTTTTGGTTGTTGTGATCCCTCGGAGTCACCTAGTGCAG
11800 fluorescence intensity (a.u.)

Repeat for the following sequence: GCTCACCTAACCCATTCACGTGGCGCCAAACCCTCAGGGGCGGAGTCACCTAGTGCAG
8250 fluorescence intensity (a.u.)

How about AAGACATGTGAATTTTGGTGGGATGTGGATGGGGAATTGACGGAGTCACCTAGTGCAG ?
9840 fluorescence intensity (a.u.)

Further, for CAAGTTATTGACTTTTGGTCATGATGTTACTATTCATCTTCGGAGTCACCTAGTGCAG ?
9120 fluorescence intensity (a.u.)

Same for GTTCTTCGTTAATACGGTGCTTTCATTATTTTGTTTTCCCCGGAGTCACCTAGTGCAG
16600 fluorescence intensity (a.u.)

Next entry: GATAGGGTTAGCAGGGTGGGAAAATATATTTATTATAGTTCGGAGTCACCTAGTGCAG
18700 fluorescence intensity (a.u.)

# repeat for GCCGAGGGCGCCGCCGGCGTCGTCCGAGCTGTGCCGCGCGCGGAGTCACCTAGTGCAG
8640 fluorescence intensity (a.u.)

Same thing, different sequence: TTCCTGGTTGCTTCTTTTGCAGTTTTTTTTTTCCCTTCCTCGGAGTCACCTAGTGCAG
10100 fluorescence intensity (a.u.)

Next sequence: GTGCTCGATGCTCGATGCCCTCCTTTTCCGCCATCTTTTTCGGAGTCACCTAGTGCAG
10200 fluorescence intensity (a.u.)

Item: GATAGTGTCCCACGCATGCGTCCACGAGTCCTCGACGCAACGGAGTCACCTAGTGCAG
9120 fluorescence intensity (a.u.)

Next sequence up: GGTTTGGCTTTGCTTCTTCCTCGCGCGGCGCCTCCCATCCCGGAGTCACCTAGTGCAG
9260 fluorescence intensity (a.u.)

Here is the next sequence: GAACTTATTTTACTGCAATTGTTTGCATCACTTATTCTAACGGAGTCACCTAGTGCAG
9570 fluorescence intensity (a.u.)

Item: GAAGTTAGGGTTTGAGGGTTTGGTTCCGGAGGGTAGGGTCCGGAGTCACCTAGTGCAG
9850 fluorescence intensity (a.u.)

Next: TTCTCTACATTGTTCATTTAGTATTTTTTTCTTTTCATTTCGGAGTCACCTAGTGCAG
10700 fluorescence intensity (a.u.)

For TATTAGTGTTTTATTTTCACCGGTTAATATTTTTGTTCTTCGGAGTCACCTAGTGCAG then?
8880 fluorescence intensity (a.u.)

// next record TAGTTCATCCTTGACATCAAGTGGGTTGCTAGTCTCATTCCGGAGTCACCTAGTGCAG
9450 fluorescence intensity (a.u.)

Cool, now TAGGGTTTGGATGGATAGGGTATATGAGGGTAATTTAGGCCGGAGTCACCTAGTGCAG
8450 fluorescence intensity (a.u.)

Now the same for ATCTTCGGTGTACTATTGGGTCATGATTTGACCCATCTAACGGAGTCACCTAGTGCAG
24900 fluorescence intensity (a.u.)

Again, but for TTTAGATTTATTTTTTGTGACATAGGGAGTACTTTTTTTTCGGAGTCACCTAGTGCAG
9200 fluorescence intensity (a.u.)

Lookup AGGAAATGTCTCATCAAATACTAGATTGGTTTTTTTTTACCGGAGTCACCTAGTGCAG
8960 fluorescence intensity (a.u.)

Would you mind doing ACTGTGGTTTCTAGTGGGTTTTATTATTTTATAATTTGTACGGAGTCACCTAGTGCAG as well?
8480 fluorescence intensity (a.u.)

Would you kindly repeat that for CCCTGGTGTTTGGATTTGGTTGTTCCTCGCGATTGCATTTCGGAGTCACCTAGTGCAG ?
15600 fluorescence intensity (a.u.)

Lookup TAACAGTATCATTTGATAGCACAATATAAGGTGTTTTGCTCGGAGTCACCTAGTGCAG
28800 fluorescence intensity (a.u.)

Queued: TTTTTTTTTCATCGATGCTTATTTTTTCAGCCTTTACTTTCGGAGTCACCTAGTGCAG
8640 fluorescence intensity (a.u.)

Please do the same for GCGGGGTTCGTGGTGTGTGCGTGTGCGTCTCTCTCTGTCTCGGAGTCACCTAGTGCAG as well.
21100 fluorescence intensity (a.u.)

Please give the result for TCCGGTTCGTTATTTTTATTTTTCTCAGGGAAAAAAAATCCGGAGTCACCTAGTGCAG too.
8060 fluorescence intensity (a.u.)
